target-of-assay: recombinant human ezrin (Homo sapiens, UniProt P15311)
Sequence (P15311 whole entry): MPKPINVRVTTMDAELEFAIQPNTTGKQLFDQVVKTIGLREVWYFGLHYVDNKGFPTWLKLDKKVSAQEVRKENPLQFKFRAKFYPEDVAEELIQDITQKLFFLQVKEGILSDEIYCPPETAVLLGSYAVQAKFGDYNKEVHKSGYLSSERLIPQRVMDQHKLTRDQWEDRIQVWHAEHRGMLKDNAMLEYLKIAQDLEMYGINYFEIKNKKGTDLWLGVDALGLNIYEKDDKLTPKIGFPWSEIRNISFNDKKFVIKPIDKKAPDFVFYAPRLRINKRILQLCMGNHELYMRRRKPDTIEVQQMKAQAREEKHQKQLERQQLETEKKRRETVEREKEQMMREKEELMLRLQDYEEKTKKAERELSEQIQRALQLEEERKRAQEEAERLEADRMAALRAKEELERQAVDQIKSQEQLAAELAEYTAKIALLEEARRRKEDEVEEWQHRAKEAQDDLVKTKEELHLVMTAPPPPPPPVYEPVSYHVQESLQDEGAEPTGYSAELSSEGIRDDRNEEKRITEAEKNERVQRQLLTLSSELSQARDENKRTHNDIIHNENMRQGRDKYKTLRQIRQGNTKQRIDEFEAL
experiment-notes: SPR
Assay type: binding
recorded-conditions: read-out: KD (μM)^a; HBS-P pH 7.4, 2-10% DMSO, room temperature; n=4

# smiles-text, Kd
rows = [
    ("CCn1c(SCC(=O)Nc2cc(C(F)(F)F)ccc2Cl)nc2ccccc2c1=O", "2.6 µM"),
]

Just for reference, paper PMC4636458 is where these values come from.
